The origin of these recorded values is the supplement of paper PMC10065799.

Would you kindly list SH2 binding enrichment for each of these sequences?
Target: c-Src SH2;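 also: peptide library displayed on the E. coli surface as eCPX fusions, selected cells deep-sequenced, score is each peptide's frequency after selection divided by its frequency in the input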
Test: SH2 binding enrichment of the phosphorylated peptide, bacterial display (enrichment ratio); higher = better substrate or ligand; peptides without Tyr show the background
One number for each entry.

These recorded examples may help you get a feel for the data.
1. SYKNKYGMVAQ [APOB_Y276]
0.613
2. ICGVSYDEYRY [CFTR_Y512_F508C]
1.77

Batch of 7 sequences: report SH2 binding enrichment for each.
1. RFLRGYHQDAY [HLA-A_Y137_R138H]
2. ADARMYGVLPR [PLP1_Y207_W212R]
3. LSGVIYVILRK [PMP22_Y153]
4. RDLHTYIMPAH [PNMT_Y256_R254H]
5. RVDRDYVLKSA [HTATIP2_Y111]
6. KFSNQYKATIG [RAB7A_Y37]
7. HICTAYKLVLA [DHCR24_Y190_E191K]

Result:
0.632
0.557
0.841
1.27
0.418
0.656
0.45

----------
Target: EPHB2 (UniProt P29323)
Sequence (P29323 whole entry, looked up): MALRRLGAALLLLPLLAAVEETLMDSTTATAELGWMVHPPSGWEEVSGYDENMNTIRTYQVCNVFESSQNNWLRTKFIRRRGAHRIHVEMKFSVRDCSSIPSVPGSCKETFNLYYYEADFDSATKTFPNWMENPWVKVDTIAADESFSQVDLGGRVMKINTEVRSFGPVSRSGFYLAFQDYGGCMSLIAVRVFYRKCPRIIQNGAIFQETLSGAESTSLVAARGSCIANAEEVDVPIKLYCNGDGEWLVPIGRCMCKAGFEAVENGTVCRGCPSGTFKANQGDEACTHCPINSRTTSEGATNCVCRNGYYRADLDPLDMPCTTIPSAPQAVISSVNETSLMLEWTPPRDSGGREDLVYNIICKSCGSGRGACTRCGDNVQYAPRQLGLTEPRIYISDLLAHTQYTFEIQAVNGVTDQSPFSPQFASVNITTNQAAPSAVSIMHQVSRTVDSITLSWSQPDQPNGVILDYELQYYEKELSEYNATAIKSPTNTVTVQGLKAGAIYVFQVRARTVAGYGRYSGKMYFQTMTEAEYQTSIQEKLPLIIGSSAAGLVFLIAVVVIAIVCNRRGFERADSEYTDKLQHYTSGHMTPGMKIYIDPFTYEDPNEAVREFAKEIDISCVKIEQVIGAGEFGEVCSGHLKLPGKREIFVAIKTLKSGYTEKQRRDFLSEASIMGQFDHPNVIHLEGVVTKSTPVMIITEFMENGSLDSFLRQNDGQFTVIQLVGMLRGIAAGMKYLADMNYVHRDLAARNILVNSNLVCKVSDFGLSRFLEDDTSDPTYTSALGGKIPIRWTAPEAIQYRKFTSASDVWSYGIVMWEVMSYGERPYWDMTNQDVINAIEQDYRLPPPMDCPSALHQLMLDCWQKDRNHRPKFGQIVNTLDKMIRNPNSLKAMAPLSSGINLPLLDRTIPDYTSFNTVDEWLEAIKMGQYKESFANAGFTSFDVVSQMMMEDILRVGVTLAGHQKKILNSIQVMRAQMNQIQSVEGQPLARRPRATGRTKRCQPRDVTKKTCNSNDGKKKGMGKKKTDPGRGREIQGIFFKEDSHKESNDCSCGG
Test: phosphorylation enrichment, bacterial display (enrichment ratio); higher = better substrate or ligand; peptides without Tyr show the background
Please mark condition met if the recorded phosphorylation enrichment is equal to or greater than 0.5, and condition not met if it falls below.

Worked examples follow.
1. LRYEVYGGENE [STOX1_Y610]
condition met
2. KTSGNYLAVTG [WDR19_Y28]
condition met

Field: next sequence
Task: Does the sequence SIKDKYLTALF [KCNH2_Y611_V612L_YF] have recorded phosphorylation enrichment that is 0.5 or more?
Result: condition not met

----------
Molecular target: FGFR1 (UniProt P11362)
Sequence (P11362 whole entry, looked up): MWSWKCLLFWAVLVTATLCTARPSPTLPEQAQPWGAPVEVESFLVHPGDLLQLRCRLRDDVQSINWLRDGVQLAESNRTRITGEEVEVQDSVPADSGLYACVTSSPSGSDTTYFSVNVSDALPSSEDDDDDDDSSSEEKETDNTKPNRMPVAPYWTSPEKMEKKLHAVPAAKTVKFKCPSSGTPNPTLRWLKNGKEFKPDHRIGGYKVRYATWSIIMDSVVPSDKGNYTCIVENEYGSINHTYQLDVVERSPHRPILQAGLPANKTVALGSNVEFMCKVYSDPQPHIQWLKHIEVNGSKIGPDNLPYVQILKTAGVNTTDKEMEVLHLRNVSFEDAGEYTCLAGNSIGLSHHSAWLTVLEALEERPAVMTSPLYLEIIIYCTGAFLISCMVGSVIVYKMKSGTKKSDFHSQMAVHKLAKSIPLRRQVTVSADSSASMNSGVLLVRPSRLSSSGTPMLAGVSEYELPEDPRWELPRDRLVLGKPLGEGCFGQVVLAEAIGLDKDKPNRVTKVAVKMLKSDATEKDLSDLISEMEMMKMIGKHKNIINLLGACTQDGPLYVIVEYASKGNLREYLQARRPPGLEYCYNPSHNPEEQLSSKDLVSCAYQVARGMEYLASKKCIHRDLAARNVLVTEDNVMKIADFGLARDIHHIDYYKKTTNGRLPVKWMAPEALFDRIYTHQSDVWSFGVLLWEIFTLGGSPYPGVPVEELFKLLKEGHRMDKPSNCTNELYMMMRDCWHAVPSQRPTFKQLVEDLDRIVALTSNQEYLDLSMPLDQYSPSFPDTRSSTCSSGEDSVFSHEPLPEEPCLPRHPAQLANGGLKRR
Test: phosphorylation enrichment, bacterial display (enrichment ratio); higher = better substrate or ligand; peptides without Tyr show the background
outcome measure: phosphorylation enrichment

1) LLVVLYKYRCY [PSEN1_Y154]
0.686
2) CEHRGSLYLAI [TEK_Y897_Y897S]
0.609
3) PEADKYHLTFA [FGG_Y300_R301H_YF]
0.725
4) GFSDPYVKAFL [SYT3_Y470_S474F]
0.535

Look at each sequence and report its phosphorylation enrichment.
1. STDDGCIDLQF [TMEM230_Y29_Y29C]
2. DQVEQYKKELE [LMNA_Y259]
3. FKEQGYHRLPS [RIN1_Y681_P686S_YF]
4. IKNSGYISRFL [EIF2AK3_Y585_YF]

Result:
0.613
0.561
2.57
0.367

// batch mode: one phosphorylation enrichment value per listed entry
1. QTEAPYRFIFM [PTPN11_Y511_Q510P_YF]
2. SLTGAYASGIP [POM121C_Y378_T379A]
3. KFSNQYKATIG [RAB7A_Y37]
4. LGGAMYFLEAD [PKHD1_Y452_E457D_YF]
5. HIAKGYRRDNP [HARS1_Y156_V155G]

Result:
[2.71, 0.519, 0.351, 0.461, 0.33]

----------
System: AncSZ
Assay: phosphorylation enrichment, bacterial display (enrichment ratio); higher = better substrate or ligand; peptides without Tyr show the background
For each entry below, report its phosphorylation enrichment value.
Answers are plain numbers.

Before answering, review these 6 worked examples.
1. ADGLEYSRTGL [MMUT_Y287]
0.99
2. HMEAVYIDIAD [PITPNA_Y140_V136M]
3.91
3. FTFNSYFMHWV [IGHV1-46_Y51_T49N_YF]
1.55
4. NNKKDYFDMFE [SLC26A3_Y526_K521N_YF]
1.08
5. LLANAYIFDVQ [L1CAM_Y418_V421D_YF]
1.73
6. YRKNTYNVKST [SYNE2_Y575_I574T]
0.415

Task: Return phosphorylation enrichment for the following sequence: SVTCMYSPALN [TP53_Y126_T125M]
Result: 1.39
